- measured_on: Carbonic anhydrase 4 (Homo sapiens, UniProt P22748)
- Sequence (P22748 whole entry): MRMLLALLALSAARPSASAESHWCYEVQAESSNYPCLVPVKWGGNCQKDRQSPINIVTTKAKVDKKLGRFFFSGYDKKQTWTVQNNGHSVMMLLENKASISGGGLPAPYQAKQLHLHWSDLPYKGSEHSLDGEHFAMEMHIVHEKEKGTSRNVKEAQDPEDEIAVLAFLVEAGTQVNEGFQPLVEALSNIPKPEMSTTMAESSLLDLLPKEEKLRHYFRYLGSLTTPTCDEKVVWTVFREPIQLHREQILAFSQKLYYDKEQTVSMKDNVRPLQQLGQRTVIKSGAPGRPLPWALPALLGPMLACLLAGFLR
assay_endpoint: pKi
Worth noting: pKi values are minus log10 of concentrations stated in mol/L.

- NC(=O)NO [HYDROXYUREA]: 3.95

Please find the next molecule below.
Quick one: pKi of O=C(NO)Nc1ccc(Cl)c(Cl)c1 ?
6.05
